# System: compound stability in 1x PBS, percent remaining
# EXPERIMENT_NOTES: compound stability in phosphate-buffered saline, ADME assay, biochemical, 1x PBS, with and without 50% ACN, set 2 (AID 624456);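 also: percent left after two days of incubation at room temperature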
# TEST_CONDITIONS: measured here: stability in PBS with 50% ACN
# reported stability; entries follow
Number in %, nothing else.

Sample answers from the record:
• Cc1ccc(C(=O)n2c3ccccc3c3ccccc32)cc1 = 74.6
• Cc1ccc(S(=O)(=O)NCc2ccc(C(=O)NCCN(Cc3ccccc3)C(C)C)cc2)cc1 = 100
• N#C/C(=C\c1ccc([N+](=O)[O-])o1)c1nc2ccccc2[nH]1 = 100

compound "c1ccc2c(Nc3nnc(-c4ccncc4)s3)cccc2c1" , stability observed: 100

compound "CCCc1cc(C(=O)N(C2CCCCC2)C2CCCCC2)no1" , stability observed: 76.7

---

# Test system: compound stability in 1x PBS, percent remaining
# EXPERIMENT_NOTES: compound stability in phosphate-buffered saline, ADME assay, biochemical, 1x PBS, with and without 50% ACN, set 2 (AID 624456);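 also: percent left after two days of incubation at room temperature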
# TEST_CONDITIONS: measured here: stability in PBS with 50% ACN
READOUT_TYPE: stability (%)
Number in %, nothing else.

* Brc1cc2c(cc1C1Nc3ccccc3C3C=CCC31)OCO2 (stereo unspecified) | 68.9
* CCc1oc2ccccc2c1C(=O)c1cc(Br)c(O)c(Br)c1 | 100
* NC(=O)C1CCN(c2nc(-c3ccc(Br)cc3)cs2)CC1 | 100
* O=C(O)c1ccc(N2C(=O)/C(=C/c3ccc(-c4ccc([N+](=O)[O-])cc4)o3)C=C2c2ccccc2)cc1 | 62.9
* Cc1cc(C(=O)CN2C(=O)CCC2=O)c(C)n1Cc1ccccc1 | 85.4
* Cc1ccc(C)c(OCCn2cc(C(=O)O)c3ccccc32)c1 | 100
* Cc1cc2c(s1)c1cnn(Cc3ccccc3F)c(=O)c1n2C | 86.7
* CC(=O)c1ccc(N2CCN(S(=O)(=O)c3ccc4c(c3)CC(=O)N4)CC2)cc1 | 100

compound "c1ccc(-c2nnc(N3CCOCC3)nc2-c2ccccc2)cc1" , stability observed: 100

compound CCN1CCN(c2nc3ccccc3nc2C(C#N)C(=O)OC2CCCCC2)CC1 (stereo unspecified) , stability observed: 80.1

compound CCCn1ncc(CN2CCCC(C(=O)c3cccc(OC(C)C)c3)C2)c1C (stereo unspecified) , stability observed: 100

---

# Test system: compound stability in 1x PBS, percent remaining
# EXPERIMENT_NOTES: compound stability in phosphate-buffered saline, ADME assay, biochemical, 1x PBS, with and without 50% ACN, set 2 (AID 624456);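 also: percent left after two days of incubation at room temperature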
# reported stability; entries follow
Number in %, nothing else.

Sample answers from the record:
- N#C/C(=C\c1ccc([N+](=O)[O-])o1)c1nc2ccccc2[nH]1: 52.4
- Brc1ccc2c(c1)CN1CCCC1=N2: 92.9
- CCOc1ccc(-c2nc(-c3ccncc3)no2)cc1OCC: 59.9
- CN(C)c1oc(-c2ccc(OCc3ccc(Cl)cc3)cc2)nc1C#N: 9.08

molecule "O=c1[nH]c(SCc2ccc(Cl)cc2)nc2c1CCC2" , stability observed: 98.3

molecule "COc1nc(-c2ccccc2)nnc1-c1ccccc1" , stability observed: 10.1

molecule "Cc1ccc(C)c(OCCn2cc(C(=O)O)c3ccccc32)c1" , stability observed: 90.3

molecule "O=C(c1ccccn1)N(Cc1cccs1)C1(C(=O)NC2CCCCC2)CCCCC1" , stability observed: 93.9

molecule Brc1cc2c(cc1C1Nc3ccccc3C3C=CCC31)OCO2 (centres undefined) , stability observed: 0.38

molecule "COc1ccc(CSc2nc(C)cc(=O)[nH]2)cc1" , stability observed: 88.5
